# Method description: survival rescue of mitochondrial mutant cells in low glucose, primary screen, MELAS cybrids, Rieske KO mouse fibroblasts, CellTiter-Glo (AID 1508586);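 further: test concentration not given here; z relative to plate mean and SD of compound and empty wells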
# Condition parameters: MELAS cybrid survival, CellTiter-Glo 48 h, stronger effect = higher value
Observed property: z-score

Cc1cc(C(=O)CN2CCCC2)c(C)n1-c1ccc(F)cc1    -0.384
COCCCOc1ccnc(CS(=O)c2nc3ccccc3[nH]2)c1C (stereo unspecified)    1.01
Cc1sc2c(c1C)C(c1ccc(Cl)cc1)=NC(CC(=O)Nc1ccc(O)cc1)c1nnc(C)n1-2 (stereo unspecified)    -0.542
Cn1c(CCCC(=O)O)nc2cc(N(CCCl)CCCl)ccc21    -0.517
CC(=O)NC1CCSC1=O (stereo unspecified)    -0.207
CC(=O)OCC(=O)[C@H]1CC[C@H]2[C@@H]3CC[C@H]4C[C@H](O)CC[C@]4(C)[C@H]3C(=O)C[C@]12C    -0.0226
C[C@]12CC[C@@H]3[C@@H](CC[C@@]45O[C@@H]4C(O)=C(C#N)C[C@]35C)[C@@H]1CCC2O (stereo partly specified)    -0.378
CCNCC(O)c1cccc(O)c1 (stereo unspecified)    0.575
Fc1ccc(C(OCCN2CCN(CCCc3ccccc3)CC2)c2ccc(F)cc2)cc1    -0.775
Cc1cc(SCc2sc(-c3ccc(C(F)(F)F)c(F)c3)nc2C)ccc1OCC(=O)O    -0.492
N#CC(OC1OC(COC2OC(CO)C(O)C(O)C2O)C(O)C(O)C1O)c1ccccc1 (stereo unspecified)    -0.2
CNC(C)(C)Cc1ccccc1    -0.189
COC(=O)C1=CCCN(C)C1    -0.328
O=C1CC[C@@]2(O)C3Cc4ccc(O)c5c4[C@@]2(CCN3CC2CC2)C1O5 (stereo partly specified)    1.92
CN(C)[C@@H]1C(=O)C(C(N)=O)=C(O)[C@@]2(O)C(=O)C3=C(O)c4c(O)ccc(Cl)c4[C@@](C)(O)[C@H]3C[C@@H]12    -3.64
C(#CCN1CCCC1)CN1CCCC1    0.0358
CCC(C(N)=O)N1CCCC1=O (stereo unspecified)    2
CN1C2CCC1CC(=O)C2    0.543
NC(=O)CN1CC(O)CC1=O (stereo unspecified)    -0.221
C[C@]12CCC3[C@@H](CC[C@@H]4C[C@H](O)CC[C@]34C)[C@@H]1CCC2=O (stereo partly specified)    -0.449
CCCCCCCCCCCCCCCC[N+](C)(C)C    -0.416
C[C@]12COC(=O)C[C@@H]1CC[C@@H]1[C@@H]2CC[C@@]2(C)[C@H]1CC[C@]2(C)O    0.293
N#CC(C#N)=Cc1ccc(O)c(O)c1    -0.508
CC(=O)Nc1ccc(Cc2ccc(NC(C)=O)cc2)cc1    -0.423
c1ccc2nc(N3CCNCC3)ccc2c1    0.387
C[C@]12CC[C@H](O)CC1=CC[C@@H]1[C@@H]2CC[C@]2(C)C(=O)CC[C@@H]12    0.542
Cc1sc2c(c1C)C(c1ccc(Cl)cc1)=NC(CC(=O)OC(C)(C)C)c1nnc(C)n1-2 (stereo unspecified)    0.154
C[C@](O)(COc1ccc(C#N)cc1)C(=O)Nc1ccc(C#N)c(C(F)(F)F)c1    -0.434
O=c1cccc2n1CC1CNCC2C1 (stereo unspecified)    -0.233
C=CCC1(CC(C)C)C(=O)NC(=O)NC1=O    0.0849
CCc1cc2c(s1)-n1c(C)nnc1CN=C2c1ccccc1Cl    -0.248
O=C1OCCN1N=Cc1ccc([N+](=O)[O-])o1    -1.23
CC[N+]1(C)CCCC(OC(=O)C(O)(c2ccccc2)c2ccccc2)C1 (stereo unspecified)    -0.637
C[C@]12N[C@H](Cc3ccccc31)c1ccccc12    0.143
COc1ccc(Cc2nccc3cc(OC)c(OC)cc23)cc1OC    0.889
CC(C)(C)[C@@]1(O)C[C@@H]2OC(=O)C[C@@]23C(=O)O[C@H]2OC(=O)C(O)C213 (stereo partly specified)    -0.286
